molecular target: Xanthine dehydrogenase/oxidase (Homo sapiens); assay: Inhibitory activity against Xanthine Oxidase
Sequence (P47989 whole entry): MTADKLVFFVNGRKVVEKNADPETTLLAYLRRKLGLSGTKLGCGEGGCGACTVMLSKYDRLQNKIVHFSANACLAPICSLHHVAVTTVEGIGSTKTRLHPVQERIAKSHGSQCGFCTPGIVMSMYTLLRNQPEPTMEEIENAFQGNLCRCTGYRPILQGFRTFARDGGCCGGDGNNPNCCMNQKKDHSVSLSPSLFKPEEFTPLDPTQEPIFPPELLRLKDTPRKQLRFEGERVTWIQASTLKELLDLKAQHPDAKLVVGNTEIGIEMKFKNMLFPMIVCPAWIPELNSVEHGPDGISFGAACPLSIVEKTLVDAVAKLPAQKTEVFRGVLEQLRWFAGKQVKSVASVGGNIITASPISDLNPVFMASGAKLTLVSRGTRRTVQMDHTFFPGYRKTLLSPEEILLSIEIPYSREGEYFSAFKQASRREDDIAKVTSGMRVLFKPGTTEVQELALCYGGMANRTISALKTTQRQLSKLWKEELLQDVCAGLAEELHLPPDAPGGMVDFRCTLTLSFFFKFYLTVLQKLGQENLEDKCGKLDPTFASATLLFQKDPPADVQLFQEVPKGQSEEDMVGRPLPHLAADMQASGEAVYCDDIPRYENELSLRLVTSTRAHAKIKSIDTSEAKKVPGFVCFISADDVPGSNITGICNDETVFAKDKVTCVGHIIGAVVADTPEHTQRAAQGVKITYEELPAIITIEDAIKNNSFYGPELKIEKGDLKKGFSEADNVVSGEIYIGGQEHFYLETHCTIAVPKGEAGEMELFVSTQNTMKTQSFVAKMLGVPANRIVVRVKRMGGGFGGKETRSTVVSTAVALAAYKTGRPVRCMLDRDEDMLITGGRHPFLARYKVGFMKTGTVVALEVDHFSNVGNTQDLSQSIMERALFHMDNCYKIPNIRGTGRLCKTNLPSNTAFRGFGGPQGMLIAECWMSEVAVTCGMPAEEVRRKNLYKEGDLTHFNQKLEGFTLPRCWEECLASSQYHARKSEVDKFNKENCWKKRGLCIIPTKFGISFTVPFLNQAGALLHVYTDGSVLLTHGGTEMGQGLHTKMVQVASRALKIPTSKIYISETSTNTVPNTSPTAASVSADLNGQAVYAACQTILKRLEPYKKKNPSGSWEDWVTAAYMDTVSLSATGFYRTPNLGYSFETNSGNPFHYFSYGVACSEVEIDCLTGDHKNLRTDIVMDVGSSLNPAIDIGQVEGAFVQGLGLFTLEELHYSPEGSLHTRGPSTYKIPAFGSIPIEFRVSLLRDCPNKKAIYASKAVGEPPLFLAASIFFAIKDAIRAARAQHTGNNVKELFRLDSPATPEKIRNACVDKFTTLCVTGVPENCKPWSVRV
pKi: −log10 of the molar value.
Measurement type: pKi

Query block: Fill in the blank: the reported pKi of CC1CSc2nc3nc(S)nc-3c(O)n2C1 (stereo not drawn) is ____.
Result block: < 4.00

Query block: Same question for Oc1nc2nnnc-2c2n1CCCS2 please.
Result block: < 4.00

Query block: Same question for CC1CSc2nc3nc(O)nc-3c(O)n2C1 (stereo not drawn) please.
Result block: < 4.00

Values compiled from ChEMBL document CHEMBL1129352.
